Cited source for all entries: ChEMBL document CHEMBL2074388

Consider the following log10(IC50) values measured on Solute carrier family 22 member 2 (Rattus norvegicus).
Sequence (Q9R0W2 whole entry): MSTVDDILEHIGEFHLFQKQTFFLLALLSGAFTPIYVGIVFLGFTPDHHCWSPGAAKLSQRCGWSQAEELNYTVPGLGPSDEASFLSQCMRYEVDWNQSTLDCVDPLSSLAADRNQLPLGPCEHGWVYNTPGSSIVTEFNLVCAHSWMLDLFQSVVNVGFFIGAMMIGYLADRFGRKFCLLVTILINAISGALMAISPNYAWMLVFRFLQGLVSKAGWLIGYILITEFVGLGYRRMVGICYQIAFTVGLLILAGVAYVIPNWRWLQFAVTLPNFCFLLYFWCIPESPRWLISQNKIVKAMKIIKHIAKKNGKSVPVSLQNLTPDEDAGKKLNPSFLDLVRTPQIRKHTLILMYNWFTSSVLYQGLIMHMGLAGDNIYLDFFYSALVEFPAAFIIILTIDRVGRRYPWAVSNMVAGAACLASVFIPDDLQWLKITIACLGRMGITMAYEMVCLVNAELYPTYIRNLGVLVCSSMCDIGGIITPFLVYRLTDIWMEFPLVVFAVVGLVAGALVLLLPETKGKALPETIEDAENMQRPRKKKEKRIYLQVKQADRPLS
Values are log10 of IC50 in µM.

Recorded log10(IC50) of `N=C(N)N` , please.
2.23

Recorded log10(IC50) of `C[N+](C)(C)C` , please.
2.80

Recorded log10(IC50) of CC[n+]1c(CC2C=C(C)N=C(c3ccccc3)N2C)ccc2ccccc21 (configuration not stated) , please.
0.41

Recorded log10(IC50) of `CCC[N+](CCC)(CCC)CCC` , please.
0.79

Recorded log10(IC50) of `Nc1ccc(C(=O)NCC(=O)O)cc1` , please.
3.65

Recorded log10(IC50) of `CCCN(CCC)S(=O)(=O)c1ccc(C(=O)O)cc1` , please.
3.23

Recorded log10(IC50) of `C[C@]12C[C@H](O)[C@H]3[C@@H](CCC4=CC(=O)CC[C@@]43C)[C@@H]1CC[C@@H]2C(=O)CO` , please.
0.60

Recorded log10(IC50) of CC(C)C(c1ccccc1)C(O)CC[N+]1(C)CCCCC1 (configuration not stated) [MEPIPERPHENIDOL BROMIDE] , please.
2.68

Recorded log10(IC50) of CCN(CC)CCNC(=O)c1ccc(N)cc1 [PROCAINAMIDE] , please.
2.65

Recorded log10(IC50) of `CNCCCN1c2ccccc2CCc2ccccc21` , please.
1.00

Recorded log10(IC50) of `O=C(O)CCC(=O)C(=O)O` , please.
2.85

Recorded log10(IC50) of `C=C[C@H]1C[N@@]2CC[C@H]1C[C@@H]2[C@@H](O)c1ccnc2ccc(OC)cc12` , please.
1.16

----------
What pIC50 was measured for each of the following?
# reply with the number alone; pIC50 is -log10 of concentration in mol/L

Please tell me: pIC50 of CCC[N+](CCC)(CCC)CCC [TETRAPROPYLAMMONIUM] , system UniProtKB Q63089?
4.95

Please tell me: pIC50 of N=C(N)N [GUANIDINE] , system UniProtKB Q63089?
2.35

Please tell me: pIC50 of CC(C)C(c1ccccc1)C(O)CC[N+]1(C)CCCCC1 (centres undefined) [MEPIPERPHENIDOL BROMIDE] , system UniProtKB Q63089?
5.15

Please tell me: pIC50 of Nc1ccc(C(=O)NCC(=O)O)cc1 [AMINOHIPPURIC ACID] , system UniProtKB Q63089?
2.89

Please tell me: pIC50 of C[C@]12C[C@H](O)[C@H]3[C@@H](CCC4=CC(=O)CC[C@@]43C)[C@@H]1CC[C@@H]2C(=O)CO [CORTICOSTERONE] , system UniProtKB Q63089?
3.82

Please tell me: pIC50 of CCCN(CCC)S(=O)(=O)c1ccc(C(=O)O)cc1 [PROBENECID] , system UniProtKB Q63089?
2.79

Please tell me: pIC50 of CC[n+]1c(CC2C=C(C)N=C(c3ccccc3)N2C)ccc2ccccc21 (centres undefined) [Cyanine-863] , system UniProtKB Q63089?
6.29

Please tell me: pIC50 of O=C(O)CCC(=O)C(=O)O [ALPHA-KETOGLUTARIC ACID] , system UniProtKB Q63089?
3.13

Please tell me: pIC50 of COc1cc(C(O)CNC(C)C)ccc1O (centres undefined) [METIPRENALINE] , system UniProtKB Q63089?
4.43
